Where do these numbers come from? They come from patent US9546153B2.

Recorded pIC50, one value per entry.
Test system: TLR2 induced IL-6 in peripheral blood mononuclear cells (PBMCs)
EXPERIMENTAL PROTOCOL: PBMC TLR2 Induced IL-6 Assay
Type: cell-based, human
CONDITION PARAMETERS: Homo sapiens, PBMC, 5 h, human PBMCs, 10 μg/ml lipoteichoic acid for 5 hours, IL-6 by ELISA; value without asterisk; read-out: Cell IC50
Description: Peripheral blood mononuclear cells (PBMCs) were isolated from human blood containing the anti-coagulant EDTA (2.5 mM) by centrifugation over a FICOLL® gradient. PBMCs (250000 cells/well) were cultured in assay media (RPMI with 10% heat inactivated FCS) with compounds for 30 minutes at 37° C. in a 5% CO2 incubator. […] Supernatants were harvested and analyzed for IL-6 levels by ELISA (BD Biosciences, San Jose, Calif.). Inhibition was calculated as either an IC50 or EC50. […]
Scale note: pIC50 = -log10(concentration in M).

// solved cases for pIC50 follow
- COMPOUND: "COc1ncnc2ccc(Nc3cc(NC4CCOCC4)c(C(=O)NC[C@@H](F)C(C)(C)O)cn3)cc12"
  pIC50: 6.38
- COMPOUND: "CC(C)Nc1cc(Nc2ccc3ncsc3c2)ncc1C(=O)NCC[C@@H](C)NC(=O)CN(C)C"
  pIC50: 6.58
- COMPOUND: "CC(C)(O)[C@H](F)CNC(=O)c1cnc(Nc2ccc3ncsc3c2)cc1NC1COCCC1F (stereo partly shown)"
  pIC50: 6.58
- COMPOUND: "CC(C)(O)[C@H](F)CNC(=O)c1cnc(Nc2nc3scnc3cc2F)cc1NC1CC1"
  pIC50: 6.37
- COMPOUND: "CC(C)(O)[C@H](F)CNC(=O)c1cnc(Nc2ccc3nccnc3c2)cc1NC1CC1"
  pIC50: 6.44

Consider the additional compound presented here.
Qu. Param item = CC(C)(O)[C@H](F)CNC(=O)c1cnc(Nc2ccc3ncsc3c2)cc1NC1CCCOC1 (stereo partly shown) ; retrieve measured pIC50.
Ans. 6.64

###

Test system: TLR2 induced IL-6 in peripheral blood mononuclear cells (PBMCs)
EXPERIMENTAL PROTOCOL: PBMC TLR2 Induced IL-6 Assay
Type: cell-based, human
CONDITION PARAMETERS: Homo sapiens, PBMC, 5 h, human PBMCs, 10 μg/ml lipoteichoic acid for 5 hours, IL-6 by ELISA; value without asterisk; read-out: Cell IC50
Protocol: Peripheral blood mononuclear cells (PBMCs) were isolated from human blood containing the anti-coagulant EDTA (2.5 mM) by centrifugation over a FICOLL® gradient. PBMCs (250000 cells/well) were cultured in assay media (RPMI with 10% heat inactivated FCS) with compounds for 30 minutes at 37° C. in a 5% CO2 incubator. […] Supernatants were harvested and analyzed for IL-6 levels by ELISA (BD Biosciences, San Jose, Calif.). Inhibition was calculated as either an IC50 or EC50. […]
PROPERTY MEASURED: IC50
Express your answer as a number followed by its unit.

- SMILES: "CC(C)Nc1cc(Nc2ccc3ncsc3c2)ncc1C(=O)NC1CCN(C(=O)N2CCOCC2)CC1"
  STUDY SYSTEM: "TLR2 induced IL-6 in peripheral blood mononuclear cells (PBMCs)"
  IC50: "471 nM"
- SMILES: "CC(=O)N[C@@H](C)CCNC(=O)c1cnc(Nc2ccc3ncsc3c2)cc1NC(C)C"
  STUDY SYSTEM: "TLR2 induced IL-6 in peripheral blood mononuclear cells (PBMCs)"
  IC50: "405 nM"
- SMILES: "CC(C)(O)[C@H](F)CNC(=O)c1cnc(Nc2ccn3nccc3n2)cc1NCC(F)F"
  STUDY SYSTEM: "TLR2 induced IL-6 in peripheral blood mononuclear cells (PBMCs)"
  IC50: "516 nM"

Consider the additional compound presented here.
Qu. Param item = CC(C)(O)[C@H](F)CNC(=O)c1cnc(Nc2ccc3ncsc3c2)cc1Nc1ncc(CO)s1 ; retrieve measured IC50.
Ans. 255 nM
